Molecular target: T1, CD3 (antigen of the anti-CD3 antibody, coated in the ELISA of Examples 1-3) (Homo sapiens (Human), UniProt P07766 23-126)
T1 construct: also called antibody antigen
T1 sequence (P07766 23-126 limits assumed, form in doubt): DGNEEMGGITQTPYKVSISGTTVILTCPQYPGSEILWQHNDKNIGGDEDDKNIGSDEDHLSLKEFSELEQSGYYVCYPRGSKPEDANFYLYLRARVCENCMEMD
Experiment: ELISA, coated antigen, anti-human IgG-HRP; reference wild-type antibody
reported metric: Binding strength of mutants (EC50 mutant/EC50 wild-type) (fold)

binder: anti-CD3 antibody mutant VL-N54C (antibody, V domains shown, Cys point mutant of the humanized anti-CD3 antibody; also called VL-54) VH: EVQLVESGGGLVQPGGSLRLSCAASGFTFSTYAMNWVRQAPGKGLEWVGRIRSKYNNYATYYADSVKDRFTISRDDSKNSLYLQMNSLKTEDTAVYYCARHGNFGNSYVSWFAYWGQGTLVTVSS VL: QTVVTQEPSLTVSPGGTVTLTCRSSTGAVTTSNYANWVQQKPGQAPRGLIGGTCKRAPGVPARFSGSLLGDKAALTLLGAQPEDEAEYFCALWYSNLWVFGGGTKLTVL
reported: 1

binder: anti-CD3 antibody mutant VH-M34C (antibody, V domains shown, Cys point mutant of the humanized anti-CD3 antibody; also called VH-34) VH: EVQLVESGGGLVQPGGSLRLSCAASGFTFSTYACNWVRQAPGKGLEWVGRIRSKYNNYATYYADSVKDRFTISRDDSKNSLYLQMNSLKTEDTAVYYCARHGNFGNSYVSWFAYWGQGTLVTVSS VL: QTVVTQEPSLTVSPGGTVTLTCRSSTGAVTTSNYANWVQQKPGQAPRGLIGGTNKRAPGVPARFSGSLLGDKAALTLLGAQPEDEAEYFCALWYSNLWVFGGGTKLTVL
reported: 1.1

binder: anti-CD3 antibody mutant VH-W111C (antibody, V domains shown, Cys point mutant of the humanized anti-CD3 antibody; also called VH-111) VH: EVQLVESGGGLVQPGGSLRLSCAASGFTFSTYAMNWVRQAPGKGLEWVGRIRSKYNNYATYYADSVKDRFTISRDDSKNSLYLQMNSLKTEDTAVYYCARHGNFGNSYVSCFAYWGQGTLVTVSS VL: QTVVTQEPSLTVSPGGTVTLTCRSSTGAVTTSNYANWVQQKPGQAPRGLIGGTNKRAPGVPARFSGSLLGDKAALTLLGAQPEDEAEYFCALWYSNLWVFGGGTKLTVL
reported: 2
